SYSTEM UNDER TEST: recombinant homotrimeric HA, A/Wisconsin/67/05 H3N2 (Influenza A virus A/Wisconsin/67/05 (H3N2))
METHOD NOTES: trimeric HA microarray, transfection set 2
CONDITION DETAILS: remark: other sources report otherwise
Give Trimeric HA Binding RLU for every item shown.
Give your result in RLU as a bare value.

Asked: Entry TCN-563 (5237_B21) (antibody, V domains shown) VH: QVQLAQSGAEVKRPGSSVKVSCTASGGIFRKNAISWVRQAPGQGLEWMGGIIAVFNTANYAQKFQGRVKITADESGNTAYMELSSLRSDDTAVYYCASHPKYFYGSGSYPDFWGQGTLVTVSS VL: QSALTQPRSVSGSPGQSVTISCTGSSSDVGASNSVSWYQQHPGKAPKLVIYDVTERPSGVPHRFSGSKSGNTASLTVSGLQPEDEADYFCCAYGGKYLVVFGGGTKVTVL : reported Trimeric HA Binding RLU = ?
Given back: 23700

Asked: Can you handle TCN-526 (5084_C17) (antibody, V domains shown) VH: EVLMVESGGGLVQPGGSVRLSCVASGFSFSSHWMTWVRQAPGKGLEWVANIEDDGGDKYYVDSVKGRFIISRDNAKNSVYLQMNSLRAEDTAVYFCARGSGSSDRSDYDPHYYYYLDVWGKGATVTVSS VL: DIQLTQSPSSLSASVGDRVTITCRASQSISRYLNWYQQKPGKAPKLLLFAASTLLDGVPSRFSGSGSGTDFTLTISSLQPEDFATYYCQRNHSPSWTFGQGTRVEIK next?
Given back: 27800

Asked: Can you handle TCN-528 (5087_P17) (antibody, V domains shown) VH: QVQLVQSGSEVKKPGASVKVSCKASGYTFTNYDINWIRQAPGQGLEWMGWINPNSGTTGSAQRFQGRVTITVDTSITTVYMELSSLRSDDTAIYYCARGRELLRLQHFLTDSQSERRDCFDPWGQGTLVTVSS VL: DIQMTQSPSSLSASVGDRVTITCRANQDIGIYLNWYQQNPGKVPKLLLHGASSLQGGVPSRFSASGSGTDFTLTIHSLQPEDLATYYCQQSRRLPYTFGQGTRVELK next?
Given back: 46000

Asked: Can you handle TCN-504 (3251_K17) (antibody, V domains shown) VH: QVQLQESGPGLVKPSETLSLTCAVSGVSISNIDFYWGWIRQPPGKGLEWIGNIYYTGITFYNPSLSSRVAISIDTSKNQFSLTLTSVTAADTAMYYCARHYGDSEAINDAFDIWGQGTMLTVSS VL: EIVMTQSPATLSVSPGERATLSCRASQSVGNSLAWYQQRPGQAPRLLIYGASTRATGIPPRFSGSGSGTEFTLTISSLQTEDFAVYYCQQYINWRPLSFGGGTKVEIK next?
Given back: 21600
